Target: T1, human GIP receptor (human) (UniProt P48546)
T1 sequence (looked up): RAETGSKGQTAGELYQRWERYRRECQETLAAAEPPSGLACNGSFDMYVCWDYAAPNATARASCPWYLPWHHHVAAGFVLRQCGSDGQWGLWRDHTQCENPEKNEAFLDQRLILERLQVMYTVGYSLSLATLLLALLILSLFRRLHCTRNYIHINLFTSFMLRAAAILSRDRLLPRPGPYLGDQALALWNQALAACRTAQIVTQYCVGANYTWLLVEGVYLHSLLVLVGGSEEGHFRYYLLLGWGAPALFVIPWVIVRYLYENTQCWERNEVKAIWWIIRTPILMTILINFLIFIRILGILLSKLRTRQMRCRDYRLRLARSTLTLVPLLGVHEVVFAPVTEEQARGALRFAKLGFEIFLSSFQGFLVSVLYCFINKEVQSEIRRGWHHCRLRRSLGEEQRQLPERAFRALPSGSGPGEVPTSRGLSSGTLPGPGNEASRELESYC
Test: cell-based or functional assay
Please assign no whenever cAMP Rel EC50, nM (in the presence of 1% HSA) is at or above 30 nM, and yes whenever it is below.

Field: example entries. Status: answers known.
binder: YXQGTFTSDFSKXLDKKAQXQFIEYLLEGGPSSGAPPPSEG (synthetic construct; SITE 2: note = 2-Aminoisobutyric Acid; SITE 13: note = alpha-methyl-leucine; SITE 17: note = Lysine is chemically modified through conjugation of the epsilon-amino group of the Lysine side chain with (2-[2-(2-Amino-ethoxy)-ethoxy]-acetyl)-(gamma-Glu)-CO-(CH2) 16-CO2H; SITE 20: n) [Example 51]
category_label: no
--
binder: YXQGTFTSDXSRXLDKKAQXAFIEYLLEXGPSSGAPPPSGE (synthetic construct; SITE 2: note = 2-Aminoisobutyric Acid; SITE 10: note = 3-(4-Pyridyl)-L-alanine; SITE 13: note = alpha-methyl-leucine; SITE 17: note = Lysine is chemically modified through conjugation of the epsilon-amino group of the Lysine side chain with (2-[2-(2-Amino-ethoxy)-ethoxy]-acetyl)) [Example 114]
category_label: yes
--
binder: YXQGTFTSDFSXXLDKKAQXAFIEYLLAGGTSSGEPPPSGE (synthetic construct; SITE 2: note = 2-Aminoisobutyric Acid; SITE 12: note = L-ornithine; SITE 13: note = alpha-methyl-leucine; SITE 17: note = Lysine is chemically modified through conjugation of the epsilon-amino group of the Lysine side chain with (2-[2-(2-Amino-ethoxy)-ethoxy]-acetyl)-(gamma-Glu)) [Example 106]
category_label: no
--
binder: YXQGTFTSDFSRXLDKKAQXAFIEYLLAGGPSSGAPPPSGS (synthetic construct; SITE 2: note = 2-Aminoisobutyric Acid; SITE 13: note = alpha-methyl-leucine; SITE 17: note = Lysine is chemically modified through conjugation of the epsilon-amino group of the Lysine side chain with (2-[2-(2-Amino-ethoxy)-ethoxy]-acetyl)-(gamma-Glu)-CO-(CH2) 18-CO2H; SITE 20: n) [Example 77]
category_label: no
--
binder: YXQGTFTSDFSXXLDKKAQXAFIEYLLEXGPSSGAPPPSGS (synthetic construct; SITE 2: note = 2-Aminoisobutyric Acid; SITE 12: note = L-ornithine; SITE 13: note = alpha-methyl-leucine; SITE 17: note = Lysine is chemically modified through conjugation of the epsilon-amino group of the Lysine side chain with (2-[2-(2-Amino-ethoxy)-ethoxy]-acetyl)2-(gamma-Glu)) [Example 75]
category_label: yes

Dear colleague, could you confirm whether cAMP Rel EC50, nM (in the presence of 1% HSA) of YXQGTFTSDFSXXLDKKAQXAFIEYLLEXGPSSGAPPPGEG (synthetic construct; SITE 2: note = 2-Aminoisobutyric Acid; SITE 12: note = L-ornithine; SITE 13: note = alpha-methyl-leucine; SITE 17: note = Lysine is chemically modified through conjugation of the epsilon-amino group of the Lysine side chain with (2-[2-(2-Amino-ethoxy)-ethoxy]-acetyl)2-(gamma-Glu)) [Example 70] falls below 30 nM? Thanks.
yes

Identify whether the binder YXQGTFTSDFSRXLDKKAQXAFIEYLLEGGPSSGAPPPSGS (synthetic construct; SITE 2: note = 2-Aminoisobutyric Acid; SITE 13: note = alpha-methyl-leucine; SITE 17: note = Lysine is chemically modified through conjugation of the epsilon-amino group of the Lysine side chain with (2-[2-(2-Amino-ethoxy)-ethoxy]-acetyl)2-(gamma-Glu)-CO-(CH2 )16-CO2H; SITE 20:) [Example 144] records cAMP Rel EC50, nM (in the presence of 1% HSA) below 30 nM.
no

# TODO verify cAMP Rel EC50, nM (in the presence of 1% HSA) < 30 nM strictly for this binder: YXQGTFTSDFSXXLDKKAQXAFIEYLLEGGPSSGAPPPGGE (synthetic construct; SITE 2: note = 2-Aminoisobutyric Acid; SITE 12: note = L-ornithine; SITE 13: note = alpha-methyl-leucine; SITE 17: note = Lysine is chemically modified through conjugation of the epsilon-amino group of the Lysine side chain with (2-[2-(2-Amino-ethoxy)-ethoxy]-acetyl)-(gamma-Glu)) [Example 63]
no
